Where these numbers come from: paper PMC5603853

assayComment: Pharmacokinetic study after intravenous administration
Assay type: in vivo
experimentalConditions: rat, plasma; intravenous 10 mg/Kg, female Wistar rats
measurementType: C0 (µg/mL)
Give just the numeric value; µg/mL need not be written.

Task item: Read the entry CS(=O)(=O)c1ccc(-c2cc(C(=O)O)c3cccc(C(=O)c4ccccc4)c3n2)cc1 [AZGH 102] and write its reported C0.
Reply: 100

###

assayComment: Pharmacokinetic study after intravenous administration
Format: in vivo
experimentalConditions: rat, plasma; intravenous 10 mg/Kg, male Wistar rats; read-out: t1/2 β (converted)
Method: Male and female Wistar rats weighting 250 ± 10 g were used. They were housed in animal center of author’s institute. Each rat was housed in a cage which was kept at 25 ± 1 °C temperature and controlled humidity with 12 h light/dark cycle. Animals were fasted overnight before the experiment and had free access to water. The study protocol was approved by the local ethics committee for animal experiments of Shahid Beheshti University of Medical Sciences (Tehran, Iran). […]
measurementType: half-life (h)
The response must be a number in h with no trailing unit.

Task item: Identify the reported half-life for the following entry. CS(=O)(=O)c1ccc(-c2cc(C(=O)O)c3cccc(C(=O)c4ccccc4)c3n2)cc1
Reply: 2.23

###

assayComment: Pharmacokinetic study after oral administration
Assay type: in vivo
experimentalConditions: rat, plasma; oral 20 mg/Kg, male Wistar rats
measurementType: Cmax (ng/mL)
Quick reminder: number only, in ng/mL, skip the unit.

Task item: Tell me its Cmax given CS(=O)(=O)c1ccc(-c2cc(C(=O)O)c3cccc(C(=O)c4ccccc4)c3n2)cc1 as the entry.
Reply: 19600

###

assayComment: Pharmacokinetic study after oral administration
Type: in vivo
experimentalConditions: rat, plasma; oral 20 mg/Kg, male Wistar rats
measurementType: AUC(0-inf) (ng·h/mL)
Write the value in ng·h/mL as a bare number.

Task item: # return recorded AUC(0-inf) for input CS(=O)(=O)c1ccc(-c2cc(C(=O)O)c3cccc(C(=O)c4ccccc4)c3n2)cc1 [AZGH 102]
Reply: 49300

###

assayComment: Pharmacokinetic study after oral administration
Type: in vivo
experimentalConditions: rat, plasma; oral 20 mg/Kg, male Wistar rats; read-out: t1/2 β (converted)
measurementType: half-life
# number then unit; no other words

Task item: Input CS(=O)(=O)c1ccc(-c2cc(C(=O)O)c3cccc(C(=O)c4ccccc4)c3n2)cc1 [AZGH 102] , output reported half-life.
Reply: 3.71 h

###

assayComment: Pharmacokinetic study after oral administration
Type: in vivo
experimentalConditions: rat, plasma; oral 20 mg/Kg, male Wistar rats; read-out: β (elimination rate constant) (converted)
measurementType: k el (s⁻¹)
Reply with just the number (in s⁻¹).

Task item: Return the recorded k el value; entry: CS(=O)(=O)c1ccc(-c2cc(C(=O)O)c3cccc(C(=O)c4ccccc4)c3n2)cc1 [AZGH 102]
Reply: 5.28e-05

###

assayComment: Pharmacokinetic study after oral administration
Assay type: in vivo
experimentalConditions: rat, plasma; oral 20 mg/Kg vs IV 10 mg/Kg, male Wistar rats; read-out: F (absolute bioavailability)
measurementType: bioavailability (%)
Write the value in % as a bare number.

Task item: Provide bioavailability value for the following compound: CS(=O)(=O)c1ccc(-c2cc(C(=O)O)c3cccc(C(=O)c4ccccc4)c3n2)cc1
Reply: 27

###

assayComment: Pharmacokinetic study after intravenous administration
Format: in vivo
experimentalConditions: rat, plasma; intravenous 10 mg/Kg, female Wistar rats; read-out: t1/2 β (converted)
Experimental: Male and female Wistar rats weighting 250 ± 10 g were used. They were housed in animal center of author’s institute. Each rat was housed in a cage which was kept at 25 ± 1 °C temperature and controlled humidity with 12 h light/dark cycle. Animals were fasted overnight before the experiment and had free access to water. The study protocol was approved by the local ethics committee for animal experiments of Shahid Beheshti University of Medical Sciences (Tehran, Iran). […]
measurementType: half-life (h)
Note: unit h is implicit; provide only the numeric part.

Task item: Query half-life for CS(=O)(=O)c1ccc(-c2cc(C(=O)O)c3cccc(C(=O)c4ccccc4)c3n2)cc1
Reply: 2.38
